molecular target: human GLP-1 receptor (human, UniProt P43220); test: cell-based or functional assay
Where no end group is shown, it is not given here. [ ]: non-standard residue; d: D form. The star is where a group is joined. Acetyl(2-(4-imidazolyl)) = O=C(Cc1c[nH]cn1)*; Aib = CC(C)(N)C(=O)O
EXPERIMENTAL ENDPOINT: EC50 (nM), cAMP
Write down the numeric answer in nM and omit the unit.

Tell us which EC50 (nM), cAMP value is on record for [Acetyl(2-(4-imidazolyl))][Aib]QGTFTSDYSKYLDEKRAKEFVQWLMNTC (also: ring between residues marked, places not visible) [oxyntomodulin derivative of SEQ ID NO. 32]
14.2

Tell us which EC50 (nM), cAMP value is on record for H[Aib]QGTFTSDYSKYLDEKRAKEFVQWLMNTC (also: ring between residues marked, places not visible) [oxyntomodulin derivative of SEQ ID NO. 24]
1.43

Tell us which EC50 (nM), cAMP value is on record for Y[Aib]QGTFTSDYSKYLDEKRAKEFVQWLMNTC (also: ring marking not visible) [oxyntomodulin derivative of SEQ ID NO. 34]
12.5

More entries:
Tell us which EC50 (nM), cAMP value is on record for H[Aib]QGTFTSDYSKYLDEKRAKEFVCWLMNT (also: ring between residues marked, places not visible) [oxyntomodulin derivative of SEQ ID NO. 23]
2.46
